# study_target: R155K NS3/4A genotype 1b (Hepatitis C virus genotype 1b, UniProt P26663, R1181K)
# test_method_notes: enzymatic inhibition assay, drug-resistant mutant R155K of genotype 1b
# Type: biochemical
metric: inhibitory activity (IC50)

>>> experimental_result("Cc1ccc(S(=O)(=O)Nc2ccccc2C(=O)Nc2nc(-c3cc(Cl)ccc3Cl)cs2)cc1")
"did not retain activity"
>>> experimental_result("Cc1ccc(S(=O)(=O)Nc2ccccc2C(=O)Nc2nc3c(C)ccc(Cl)c3s2)cc1")
"did not retain activity"
>>> experimental_result("Cc1ccc(S(=O)(=O)Nc2ccccc2C(=O)Nc2nc3c(cc4c5c(cccc53)CC4)s2)cc1")
"did not retain activity"
